# Protocol Notes: qHTS for differential inhibitors of proliferation of Plasmodium falciparum line D10 (AID 1877);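 note: parasites grown with compound for 72 h before DNA staining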
# Condition Info: series mostly up to 28.7 µM
Results filed as inconclusive are left out. Activity calls are given as the source filed them. Calls come from the whole dose curve; as a rule, active = well fitted curve in the direction sought with a large enough effect; inconclusive = small, poorly fitted or top-dose-only effect, or another doubt; inactive = no such curve, though single readings can be large or run the other way.
Returns: one label drawn from true (active), false (inactive)

Example entries begin here.
>>> group_label("CSc1nc(N)c2ncn([C@@H]3O[C@H](COP(=O)(O)OP(=O)(O)OP(=O)(O)O)[C@H](O)[C@H]3O)c2n1")
"true"
>>> group_label("Cc1cn([C@H]2C[C@@H](N=[N+]=[N-])[C@@H](CO)O2)c(=O)[nH]c1=O")
"false"
>>> group_label("CC(N)=NCCCC(N)C(=O)O (stereo unspecified)")
"false"
>>> group_label("NCCCCNS(=O)(=O)c1cccc2c(Cl)cccc12")
"true"
>>> group_label("Nc1nc(SCc2ccc([N+](=O)[O-])cc2)c2ncn([C@@H]3O[C@H](CO)[C@H](O)[C@H]3O)c2n1")
"false"

Query: Which outcome did this test record for the compound NCCC(=O)NCCc1cnc[nH]1 ?
Result: false

---

# Protocol Notes: HEK293 12hr Apoptosis Induction qHTS against the NCATS CANVASS Library (AID 1347361); note: 0% is about no effect
# Condition Info: HEK293 caspase-3/7 Caspase-Glo luminescence; series mostly up to 46.1 µM
# From the text: Natural products and their derivatives continue to be wellsprings of nascent therapeutic potential. […] To address this issue, the Canvass library of natural products was assembled (https://tripod.nih.gov/canvass), in collaboration with academic and industry researchers, for quantitative high-throughput screening (qHTS) across a diverse set of cell-based and biochemical assays. […] The luminescence is proportional to the amount of caspase activity in the assay reaction. […]
Results filed as inconclusive are left out. Active and inactive are the calls of the source. Calls come from the whole dose curve; as a rule, active = well fitted activation curve with a large enough effect; inconclusive = small, poorly fitted or top-dose-only effect; inactive = flat fitted curve, though single readings scatter.
Measurement Name: caspase activation

>>> experimental_value("COc1ccc([C@@H]2CC(=O)c3c(cc(O)c(C/C=C(\\C)CCC=C(C)C)c3O)O2)cc1")
"1.23% [at 9.19 µM] (inactive)"
>>> experimental_value("CCCc1c2c([nH]c(=O)c1C)C(=O)c1[nH]c(=O)c(C)c(CCC)c1C2=O")
"inactive"
>>> experimental_value("C/C1=C/[C@@H](C)[C@H](O)C/C=C/CC/C=C/C(=O)O[C@@H]1[C@H](C)C(=O)CCCC1CC(=O)NC(=O)C1")
"inactive"
>>> experimental_value("C[C@@]12CCC[C@@](C)(C(=O)O)[C@H]1CC[C@@]13C[C@@H](CC[C@H]12)[C@](C)(O)C3")
"inactive"

---

Entries and their activity change, negative = inhibition values follow.
# Protocol Notes: qHTS Assay for Lipid Storage Modulators (AID 1519); note: % is set by controls: 0 for no effect and ±100 for the full control effect
# Condition Info: Drosophila S3 cells, BODIPY lipid droplet/cell ratio, laser cytometry; at 57.5 µM (top of the series); cells loaded with oleic acid
# Protocol: NIH Molecular Libraries Probe Production Centers Network [MLPCN] NIH Chemical Genomics Center [NCGC] Assay Submitter (PI): Beller, Mathias; Max-Planck-Institut fur Biophysikalische Chemie […] We dispensed 4 uL of cells at 1.25 x 10^6 cells/mL into LoBase Aurora COC 1,536-well plates (black walled, clear bottom) with a bottle-valve solenoid-based dispenser (Aurora) to obtain 5,000 cells/well. […] The ratio of the total intensity in PMT channel 1 over total intensity of channel 3 was also calculated. […]
Records with an inconclusive call do not appear.
Write the answer as a number in %, unit excluded.

Known activity change, negative = inhibition results, listed for orientation:
>>> experimental_value("COc1ccc(C(=O)N2CCC3(CC2)CN(C(=O)NC(C)C)C3)cc1")
-0.224
>>> experimental_value("COc1ccc(NC(=O)N2CCCC3(CCN(C(=O)c4c(C)noc4C)CC3)C2)cc1")
3.9
>>> experimental_value("COc1ccc(C(=O)N2CCC[C@@]3(CCN(C(=O)Nc4ccccc4)C3)C2)cc1")
10.7
>>> experimental_value("c1ccc(-c2cccc(N3CC[C@@]4(CCCNC4)C3)c2)cc1")
1.77
>>> experimental_value("CC(=O)N1CCC2(CCCN(C(c3ccccc3)c3ccccc3)C2)CC1")
6.41
>>> experimental_value("COc1ccc(Oc2ncc3nc(-c4cccs4)c(=O)n(CCC#N)c3n2)cc1")
2.6

Query: What value of activity change, negative = inhibition has been reported for the following compound? O=C(c1ccco1)N1CCC2(CC1)CN(Cc1cc(C(F)(F)F)cc(C(F)(F)F)c1)C2
Result: -5.85

Query: Subsequent entry: COC(=O)N1CCC[C@@]2(CCN(C(=O)Nc3ccccc3)C2)C1
Result: 3.74

Query: Then what about the compound O=c1c(-c2ccc(F)cc2)nc2cnc(N3CCNCC3)nc2n1-c1ccccc1 ?
Result: 6.93

Query: What do you get for Cc1cnc(CNc2ncncc2-c2cccnc2)cn1 ?
Result: 5.94

Query: What do we get for O=C(c1csnn1)N1CCC2(CC1)CN(c1ccncc1)C2 ?
Result: 0.619
